target: BRM (Homo sapiens); construct: made in house; host or cells: High Five insect cells; assay: ATPase catalytic activity of BRM, ADP-Glo in vitro biochemical assay; details: ADP-Glo ATPase assay, 30 nM BRM, 400 μM ATP
observable: IC50 (µM)

| compound | system tested | value units | IC50 |
| --- | --- | --- | --- |
| COCC1CN(c2cccc(-c3ccc4cnc(CNC(=O)c5ccc6c(c5)S(=O)(=O)CCOC6)cc4n3)n2)C1 [Compound 221] | BRM (Homo sapiens) | µM | 0.0823 |
| COc1nn([C@H]2C[C@H](F)C2)cc1-c1ccc2cnc(CNC(=O)c3ccc4c(c3)S(=O)(=O)CCOC4)cc2n1 [Compound 152] | BRM (Homo sapiens) | µM | 0.136 |

[A] CO[C@@H]1CCN(c2cccc(-c3ccc4cnc(CNC(=O)c5ccc6c(c5)S(=O)(=O)CCOC6)cc4n3)n2)C1 [Compound 200]
[B] O=C(NCc1cc2nc(-c3cccc(C4(F)COC4)n3)ccc2cn1)c1ccc2c(c1)S(=O)(=O)CCOC2 [Compound 142]
[C] O=C(NCc1cc2nc(-c3ccc(OC(F)F)cn3)ccc2cn1)c1ccc2c(c1)S(=O)(=O)CCOC2 [Compound 849]
Problem: Sort these compounds on IC50 so the largest reading comes first. Answer format: the labels, ordered as requested.
Solution: C, B, A
(C: 0.606 µM, B: 0.23 µM, A: 0.0081 µM)

* * *

target: BRM (Homo sapiens, UniProt P51531); construct: made in house; host or cells: High Five insect cells; assay: ATPase catalytic activity of BRM, ADP-Glo in vitro biochemical assay; details: ratio of BRG1 IC50 to BRM IC50
Sequence (P51531 whole entry): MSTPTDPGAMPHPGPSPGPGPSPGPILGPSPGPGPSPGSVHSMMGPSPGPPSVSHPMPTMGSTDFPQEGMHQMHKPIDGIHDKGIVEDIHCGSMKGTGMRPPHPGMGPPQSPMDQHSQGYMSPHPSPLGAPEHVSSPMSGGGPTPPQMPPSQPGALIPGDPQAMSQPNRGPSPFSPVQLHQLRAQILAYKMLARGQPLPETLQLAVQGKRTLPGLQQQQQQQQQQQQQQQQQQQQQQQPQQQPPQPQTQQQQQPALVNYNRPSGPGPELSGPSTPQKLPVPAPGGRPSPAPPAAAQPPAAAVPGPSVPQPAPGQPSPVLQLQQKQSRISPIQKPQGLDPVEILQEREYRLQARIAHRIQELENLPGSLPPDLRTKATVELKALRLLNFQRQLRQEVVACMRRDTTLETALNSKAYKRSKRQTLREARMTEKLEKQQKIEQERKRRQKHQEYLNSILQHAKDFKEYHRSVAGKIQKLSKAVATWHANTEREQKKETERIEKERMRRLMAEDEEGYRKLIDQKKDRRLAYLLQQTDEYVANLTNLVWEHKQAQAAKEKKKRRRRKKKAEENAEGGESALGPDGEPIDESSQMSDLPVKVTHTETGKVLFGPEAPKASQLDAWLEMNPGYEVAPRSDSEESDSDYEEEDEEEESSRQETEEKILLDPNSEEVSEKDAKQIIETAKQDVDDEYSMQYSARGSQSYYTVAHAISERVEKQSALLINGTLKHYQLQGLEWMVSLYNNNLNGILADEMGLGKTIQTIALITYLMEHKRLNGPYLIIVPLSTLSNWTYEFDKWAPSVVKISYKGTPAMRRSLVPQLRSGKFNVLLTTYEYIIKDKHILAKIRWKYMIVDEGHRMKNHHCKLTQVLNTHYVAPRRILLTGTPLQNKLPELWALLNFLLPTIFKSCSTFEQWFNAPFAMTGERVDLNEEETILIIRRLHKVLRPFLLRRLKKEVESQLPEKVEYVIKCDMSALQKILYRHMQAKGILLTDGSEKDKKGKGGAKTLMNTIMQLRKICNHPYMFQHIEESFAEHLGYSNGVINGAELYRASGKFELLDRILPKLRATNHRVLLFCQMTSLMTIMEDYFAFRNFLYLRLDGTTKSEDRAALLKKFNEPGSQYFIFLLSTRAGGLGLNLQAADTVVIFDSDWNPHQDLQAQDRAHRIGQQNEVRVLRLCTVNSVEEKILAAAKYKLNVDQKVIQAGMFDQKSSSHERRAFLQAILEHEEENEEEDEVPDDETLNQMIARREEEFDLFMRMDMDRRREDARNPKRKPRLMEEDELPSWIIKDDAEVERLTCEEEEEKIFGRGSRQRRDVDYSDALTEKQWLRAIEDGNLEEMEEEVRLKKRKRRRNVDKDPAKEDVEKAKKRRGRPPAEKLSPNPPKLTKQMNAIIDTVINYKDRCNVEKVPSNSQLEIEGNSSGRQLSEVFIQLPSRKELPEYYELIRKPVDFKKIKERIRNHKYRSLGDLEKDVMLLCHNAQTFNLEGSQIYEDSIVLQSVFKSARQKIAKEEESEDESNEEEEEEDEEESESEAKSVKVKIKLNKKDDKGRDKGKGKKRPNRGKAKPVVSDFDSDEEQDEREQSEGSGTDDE
observable: Ratio*

Consider the reported Ratio* for these molecules:
| molecule | observable | test value |
| --- | --- | --- |
| CC1CCN(c2ccc3cnc(CNC(=O)c4ccc5c(c4)S(=O)(=O)CCOC5)cc3n2)c2ncccc21 (centres unmarked) | Ratio* | 7.45 |
| COc1ccc2c(c1)N(c1ccc3cnc(CNC(=O)c4ccc5c(c4)S(=O)(=O)CCOC5)cc3n1)CCC2 | Ratio* | 12.53 |
| COc1nc(-c2ccc3cnc(CNC(=O)c4ccc5c(c4)S(=O)(=O)CCOC5)cc3n2)ccc1C(F)F | Ratio* | 14.57 |
| CO[C@@H](C)c1ccc2c(n1)N(c1ccc3cnc(CNC(=O)c4ccc5c(c4)S(=O)(=O)CCOC5)cc3n1)CCC2 | Ratio* | 12.50 |
| O=C(NCc1cc2nc(-c3cccc4c3OCC[C@@H]4OC3COC3)ccc2cn1)c1ccc2c(c1)S(=O)(=O)CCOC2 | Ratio* | 6.68 |

[I] CC1COc2ccc(-c3ccc4cnc(CNC(=O)c5ccc6c(c5)S(=O)(=O)CCOC6)cc4n3)nc2N1C (centres unmarked)
[II] COC[C@@H](C)Oc1ccc2c(c1)N(c1ccc3cnc(CNC(=O)c4ccc5c(c4)S(=O)(=O)CCOC5)cc3n1)CCC2
[III] COc1c(C)cnc2c1CCCN2c1ccc2cnc(CNC(=O)c3ccc4c(c3)S(=O)(=O)CCOC4)cc2n1
Problem: Provide the items ranked by increasing Ratio*. Answer format: the labels, ordered as requested.
Solution: I, III, II
(I: 5.71, III: 8.49, II: 18.76)

* * *

molecular target: BRM (Homo sapiens); construct: made in house; host or cells: High Five insect cells; assay: ATPase catalytic activity of BRM, ADP-Glo in vitro biochemical assay; conditions: ADP-Glo ATPase assay, 30 nM BRM, 400 μM ATP
pIC50: −log10 of the molar value.
observable: pIC50

Consider the reported pIC50 for these molecules:
| molecule | pIC50 |
| --- | --- |
| O=C(NCc1cc2nc(N3CCOc4ccc([C@H](F)CF)nc43)ccc2cn1)c1ccc2c(c1)S(=O)(=O)CCOC2 | 7.92 |
| Cc1ccc(C(=O)NCc2cc3nc(-c4cncc(C5CC5)n4)ccc3cn2)cc1S(C)(=O)=O | 7.19 |
| CC1(c2ccc3c(n2)N(c2ccc4cnc(CNC(=O)c5ccc6c(c5)S(=O)(=O)CCOC6)cc4n2)CCO3)CC1 | 7.34 |
| CC(c1cccc(-c2ccc3cnc(CNC(=O)c4ccc5c(c4)S(=O)(=O)CCOC5)cc3n2)n1)C(F)F (stereo not shown) | 6.81 |
| CN(C)S(=O)(=O)c1cc(C(=O)NCc2cc3nc(-c4cncc(C5CC5)n4)ccc3cn2)ccc1Cl | 6.71 |

[A] CN(C)c1ccc2c(n1)OCCN2c1ccc2cnc(CNC(=O)c3ccc4c(c3)S(=O)(=O)CCOC4)cc2n1
[B] O=C(NCc1cc2nc(-c3cccc(C4CC4)n3)cnc2cn1)c1ccc2c(c1)S(=O)(=O)CCOC2
[C] O=C(NCc1cc2nc(-c3cncc(C4CC4)n3)ccc2cn1)c1ccc2c(c1)S(=O)(=O)CCCO2
[D] Cc1ccc(C(=O)NCc2cc3nc(-c4cncc(C5CC5)n4)ccc3cn2)cc1S(=O)(=O)C(C)C
[E] COCCN(c1cc(C2CC2)ccn1)c1ccc2cnc(CNC(=O)c3ccc4c(c3)S(=O)(=O)CCOC4)cc2n1
Problem: Sort these molecules on pIC50 so the largest reading comes first. Answer format: the labels, ordered as requested.
Solution: A, B, C, D, E

* * *

molecular target: BRM (Homo sapiens); construct: made in house; host or cells: High Five insect cells; assay: ATPase catalytic activity of BRM, ADP-Glo in vitro biochemical assay; details: ADP-Glo ATPase assay, 30 nM BRM, 400 μM ATP
observable: IC50 (nM)

Consider the reported IC50 for these molecules:
| molecule | observable | test value |
| --- | --- | --- |
| COc1c(F)cnc2c1CCCN2c1ccc2cnc(CNC(=O)c3ccc4c(c3)S(=O)(=O)CCOC4)cc2n1 [Compound 802] | IC50 | 8.1 |
| COCCOc1cccc(-c2ccc3cnc(CNC(=O)c4ccc5c(c4)S(=O)(=O)CCOC5)cc3n2)c1 [Compound 135] | IC50 | 112 |
| O=C(NCc1cc2nc(-c3cccc(F)n3)ccc2cn1)c1ccc2c(c1)S(=O)(=O)CCOC2 [Compound 243] | IC50 | 528 |
| O=C(NCc1cc2nc(N3CCCc4cccnc43)ccc2cn1)c1ccc2c(c1)S(=O)(=O)CCOC2 [Compound 150] | IC50 | 33.8 |

[I] Cn1ccc2ccc(-c3ccc4cnc(CNC(=O)c5ccc6c(c5)S(=O)(=O)CCOC6)cc4n3)nc21 [Compound 136]
[II] C[C@@H]1CN(c2cccc(-c3cnc4cnc(CNC(=O)c5ccc6c(c5)S(=O)(=O)CCOC6)cc4c3)n2)C[C@H](C)O1 [Compound 161]
Problem: Returns: the argument ( I or II ) having the larger IC50. Answer = label.
Solution: I

[1] C[C@@H]1CN(c2ccnc(-c3ccc4cnc(CNC(=O)c5ccc6c(c5)S(=O)(=O)[C@@H](C)COC6)cc4c3)n2)C[C@H](C)O1 [Compound 708]
[2] COC[C@@H](C)N(C)c1cccc(-c2ccc3cnc(CNC(=O)c4ccc5c(c4)S(=O)(=O)CCOC5)cc3n2)n1 [Compound 72]
[3] C[C@@H]1C=C(c2cccc(-c3ccc4cnc(CNC(=O)c5ccc6c(c5)S(=O)(=O)CCOC6)cc4n3)n2)C[C@H](C)O1 [Compound 45]
[4] O=C(NCc1cc2nc(N3CCOc4ccc(C(F)CF)nc43)ccc2cn1)c1ccc2c(c1)S(=O)(=O)CCOC2 (centres unmarked) [Compound 838]
Problem: Sort these molecules on IC50 so the largest reading comes first. Answer format: the labels, ordered as requested.
Solution: 2, 1, 4, 3

[P] CC(C)(F)c1cccc(-c2ccc3cnc(CNC(=O)c4ccc5c(c4)S(=O)(=O)CCOC5)cc3n2)n1 [Compound 280]
[Q] C[C@@H]1CN(c2cncc(-c3ccc4cnc(CNC(=O)c5ccc6c(c5)S(=O)(=O)CCOC6)cc4c3)n2)C[C@H](C)O1 [Compound 211]
Problem: Returns: the argument ( P or Q ) having the larger IC50. Answer = label.
Solution: P

[P] CS(=O)(=O)c1cc(C(=O)NCc2cc3nc(N4CCCc5ccc(C6CC6)nc54)ccc3cn2)cnc1C(F)F [Compound 721]
[Q] O=C(NCc1cc2nc(N3CCN(CC(F)F)c4cccnc43)ccc2cn1)c1ccc2c(c1)S(=O)(=O)CCOC2 [Compound 742]
Problem: Lower value for measured IC50? Options: P , Q Answer = label.
Solution: Q

* * *

molecular target: BRM (Homo sapiens); construct: made in house; host or cells: High Five insect cells; assay: ATPase catalytic activity of BRM, ADP-Glo in vitro biochemical assay; conditions: selectivity ratio BRG1 IC50 / BRM IC50
observable: Ratio* (BRG1 IC50 (μM) divided by BRM IC50 (μM))

Consider the reported Ratio* (BRG1 IC50 (μM) divided by BRM IC50 (μM)) for these compounds:
| compound | system tested | test value |
| --- | --- | --- |
| O=C(NCc1cc2cc(-c3cccc(N4CCC4)n3)ccc2cn1)c1cc(F)c2c(c1)S(=O)(=O)CCOC2 [Compound 268] | BRM (Homo sapiens) | 21.00 |
| O=C(NCc1cc2nc(-c3cccc(C4CCOCC4)n3)ccc2cn1)c1ccc2c(c1)S(=O)(=O)CCOC2 [Compound 133] | BRM (Homo sapiens) | 7.91 |
| O=C(NCc1cc2cc(-c3cccc(N4CCC4)n3)ccc2cn1)c1cnc2c(c1)S(=O)(=O)CCOC2 [Compound 256] | BRM (Homo sapiens) | 8.69 |
| O=C(NCc1cc2nc(-c3cccc4c3CCN4C3COC3)ccc2cn1)c1ccc2c(c1)S(=O)(=O)CCOC2 [Compound 198] | BRM (Homo sapiens) | 4.34 |
| Cc1ncc(C(=O)NCc2cc3nc(-c4cccc(N5C[C@@H](C)O[C@@H](C)C5)n4)ccc3cn2)cc1S(C)(=O)=O [Compound 107] | BRM (Homo sapiens) | 9.98 |

[A] COCCN(C)c1cccc(-c2ccc3cnc(CNC(=O)c4ccc5c(c4)S(=O)(=O)CCOC5)cc3n2)n1 [Compound 145]
[B] CN(C)[C@H]1CCN(c2cccc(-c3ccc4cnc(CNC(=O)c5ccc6c(c5)S(=O)(=O)CCOC6)cc4n3)n2)CC1(F)F [Compound 81]
Problem: Returns: the argument ( A or B ) having the larger Ratio* (BRG1 IC50 (μM) divided by BRM IC50 (μM)). Answer = label.
Solution: A
